target_entity: NMDA receptor glycine B site (Rattus norvegicus)
method_notes: Calcium FLIPR studies, rat cortical neurons (NMDA/D-Serine induced intracellular calcium)
Assay type: cell-based
Parameters: Primary neurons are prepared from cortices of embryonal rats at day 17 of pregnancy; endogenous in cells; host or cells: primary rat cortical neurons (E17, 11-13 DIV)
property_name: IC50 (µM)
Give your result in µM as a bare value.

**Q:** I'd like to know its IC50. The molecule in question is CC(Oc1cc(C(=O)O)cc2cc(Cl)cc(Cl)c12)C(=O)Nc1ccccc1CO (stereo not shown) [Example 17]
**A:** 12.6

====

Documented pIC50 across a set of compounds
target_entity: NMDA receptor glycine B site (Rattus norvegicus, UniProt P35439)
method_notes: Calcium FLIPR studies, rat cortical neurons (NMDA/D-Serine induced intracellular calcium)
Assay type: cell-based
Design: Primary neurons are prepared from cortices of embryonal rats at day 17 of pregnancy; endogenous in cells; host or cells: primary rat cortical neurons (E17, 11-13 DIV)
applied_conditions: rat cortical neurons; stimulation with 30 μM NMDA and 1 μM D-Serine; antagonist pre-incubated 10 min; read-out: NMDA-FLIPR-rCTX-NAM - IC50
Lab note — pIC50 values are minus log10 of concentrations in M.

# example entries with known answers
>>> observed_measurement("O=C(O)Cc1ccccc1NC(=O)COc1cc(C(=O)O)cc2cc(Cl)cc(Cl)c12")
5.57
>>> observed_measurement("CN(C(=O)COc1cc(C(=O)O)cc2cc(Cl)cc(Cl)c12)c1cccc(C(=O)O)c1")
5.32
>>> observed_measurement("O=C(O)CCc1cccc(NC(=O)COc2cc(C(=O)O)cc3cc(Cl)cc(Cl)c23)c1")
5.24

**Q:** I'd like to know its pIC50. The compound in question is `O=C(COc1cc(C(=O)O)cc2cc(Cl)cc(Cl)c12)Nc1ccccc1OCC(=O)N1CCOCC1`
**A:** 5.77

**Q:** // repeat for `O=C(COc1cc(C(=O)O)cc2cc(Cl)cc(Cl)c12)NCc1ccccn1` and report
**A:** 5.07

**Q:** // repeat for `O=C(O)COc1ccc(NC(=O)COc2cc(C(=O)O)cc3cc(Cl)cc(Cl)c23)c(OCC(=O)O)c1` and report
**A:** 5.88

**Q:** // repeat for `O=C(O)COc1cccc(NC(=O)COc2cc(C(=O)O)cc3cc(Cl)cc(Cl)c23)c1` and report
**A:** 5.50

**Q:** // repeat for O=C(COc1cc(C(=O)O)cc2cc(Cl)cc(Cl)c12)NC(C(=O)O)c1ccccc1 (centres unmarked) and report
**A:** 5.46

====

Documented IC50 across a set of molecules
target_entity: NMDA receptor glycine B site (Rattus norvegicus, UniProt P35439)
method_notes: Calcium FLIPR studies, rat cortical neurons (NMDA/D-Serine induced intracellular calcium)
Type: cell-based
Set-up: Primary neurons are prepared from cortices of embryonal rats at day 17 of pregnancy; endogenous in cells; host or cells: primary rat cortical neurons (E17, 11-13 DIV)
applied_conditions: rat cortical neurons; stimulation with 30 μM NMDA and 1 μM D-Serine; antagonist pre-incubated 10 min; read-out: NMDA-FLIPR-rCTX-NAM - IC50
Give your result in µM as a bare value.

# example entries with known answers
>>> observed_measurement("Cc1ccc(S(=O)(=O)NC(=O)COc2cc(C(=O)O)cc3cc(Cl)cc(Cl)c23)cc1 [Example 36]")
5.47
>>> observed_measurement("O=C(COc1cc(C(=O)O)cc2cc(Cl)cc(Cl)c12)Nc1ccccc1CO [Example 5]")
7.08
>>> observed_measurement("O=C(COc1cc(C(=O)O)cc2cc(Cl)cc(Cl)c12)NCc1cccc(CO)c1 [Example 22]")
5.4

# evaluate next
**Q:** I'd like to know its IC50. The molecule in question is CC(C)(Oc1ccccc1NC(=O)COc1cc(C(=O)O)cc2cc(Cl)cc(Cl)c12)C(=O)O [Example 81]
**A:** 11.3
